// provenance: the supplement of paper PMC6555819

System: RARa:RXR (NR concentration 270 nM, RXRa partner concentration 90 nM)
Assay: PBM binding z-score (relative to random genomic background probes); higher = stronger binding; sequences stand for … in GC…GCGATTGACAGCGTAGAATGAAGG
Dear colleague, classification is by PBM binding z-score, with ranges listed here: bucket 1 (below 0.9), bucket 2 (0.9 to below 2), bucket 3 (2 or more)

Solved cases (5 shown):
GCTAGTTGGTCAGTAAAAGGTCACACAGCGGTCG :: bucket 3
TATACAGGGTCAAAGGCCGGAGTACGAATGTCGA :: bucket 3
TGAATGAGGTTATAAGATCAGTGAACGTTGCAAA :: bucket 2
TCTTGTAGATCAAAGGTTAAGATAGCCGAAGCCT :: bucket 3
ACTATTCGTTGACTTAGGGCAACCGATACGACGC :: bucket 1

Request: Using the reported PBM binding z-score, which band applies to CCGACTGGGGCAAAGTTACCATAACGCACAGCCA ?
Result: bucket 1

Request: Param item: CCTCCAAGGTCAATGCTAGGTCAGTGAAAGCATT
Result: bucket 3

Request: Repeat with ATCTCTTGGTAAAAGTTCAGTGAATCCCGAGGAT
Result: bucket 2

Request: Then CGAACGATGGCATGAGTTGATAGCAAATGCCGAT ?
Result: bucket 1

Request: Now give it for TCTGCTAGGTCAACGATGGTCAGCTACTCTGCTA too.
Result: bucket 2

Request: # iterate: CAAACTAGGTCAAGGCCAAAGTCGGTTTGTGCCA
Result: bucket 3

Request: Ok, now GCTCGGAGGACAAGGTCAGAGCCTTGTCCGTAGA
Result: bucket 2

Request: Try the sequence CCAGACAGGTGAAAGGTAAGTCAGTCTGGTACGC
Result: bucket 2
